system: SF-539 CNS; assay: NCI-60 one-dose screen, 48 h (100 = growth as untreated, 0 = no growth, -100 = all killed); conditions: 10 µM unless noted
The panel holds about 83,000 compounds, 20% with a hit somewhere; the sample as a whole holds those more often.
Metric: growth (%)
# output: bare number, implied unit %

Field: example entries. Status: answers known.
Query (compound): O=Cc1c[nH]c2ccc(NC(=O)OCc3ccccc3)cc12 ; field requested: growth 110

Query (compound): O=C(Nc1ccc(C2=NCCCN2)cc1)Nc1ccc(C2=NCCCN2)cc1 ; field requested: growth 80.1

Query (compound): O=C(Nc1cccc(-n2cc(-c3ccncc3)c(-c3ccc(O)c(Cl)c3)n2)c1)Nc1ccc(Cl)c(C(F)(F)F)c1 ; field requested: growth -19.3

Query (compound): CC1(C)OC(=O)C(=Cc2ccccc2Br)C(=O)O1 ; field requested: growth 91.9

Query (compound): COc1cc2c(cc1OCCCOc1ccc(-c3cc4ccccc4c4ccccc34)cc1)N=C[C@@H]1CCCN1C2=O ; field requested: growth -57.6

Query (compound): COc1cc(C2NC(c3ccc(Cl)cc3)C(C)C(=NC(=O)c3cnccn3)C2C)cc(OC)c1OC (stereo not given) ; field requested: growth 89.8

Query (compound): COc1cc(/C=C/C(=O)N2CCN(C(=O)/C=C/c3ccccc3)CC2)cc(OC)c1OC ; field requested: growth 107

Query (compound): CCC(O)C(C)(C)C (stereo not given) ; field requested: growth 113

Query (compound): CCCCCCCC/C=C\CCCCCCCCOc1ccccc1CC(=O)NCC[N+]1(C)CCCC1 ; field requested: growth 99

Further cases:
Query (compound): CN=C(NC)N/N=C(C)\C=N\NC(=NC)NC ; field requested: growth 99.1
